# Test system: Odoribacter splanchnicus
# assay-details: growth AUC relative to DMSO control (median of replicates) (fraction); higher = more growth (less inhibition), active = hit call of the paper
# condition-summary: 20 µM; 24 h
Response field class: enum, chosen by comparing growth AUC against range A: < 0.9; range B: ≥ 0.9 and < 1; range C: ≥ 1

Please report the category associated with CC1(C)CCC(Cc2ccc(Cl)cc2)C1(O)Cn1cncn1 (stereo unspecified) , nothing else.
range A

Which growth AUC band matches CC(C1CC1)C(O)(Cn1cncn1)c1ccc(Cl)cc1 (mixture of isomers) ?
range A

# bin lookup: classify "CNC(=O)Oc1cc(C)cc(C(C)C)c1" by its growth AUC
range C

Using the reported growth AUC, which band applies to "c1ccc(-c2ccccc2)cc1" ?
range B

Please indicate the class for "O=C(O)CCCOc1ccc(Cl)cc1Cl" based on its growth AUC.
range C

Categorize the following entry: ClC1C(Cl)C(Cl)C(Cl)C(Cl)C1Cl (mixture of isomers)
range B
